# EXPERIMENTAL DETAILS: yeast display, Sf9 membrane polyspecificity reagent, FACS + sequencing; frameworks hold sequencing errors
METRIC: polyreactivity (PSR sort gate)

| SEQUENCE INPUT | polyreactivity (PSR sort gate) |
| --- | --- |
| QVQLVESGGGLVQAGGSLRLSCAASGRTFRKFAMGWYRQAPGKERELVAASSWSGGSTYYANSVKGRFTISRDNAKNTVYLQMNSLKPDDTAVYYCAAVPVHTGSLYWGFTTGYDYWGQGTQVTVSS | low polyreactivity |
| QVQLVDSGGVLFQAGVSLLISCYASGITFYSYALGRNRRAPGKDWELVASITKSSGRTYYADSVKGRFTISRDNAKTTVSLQMNSVKPEDTAVYYCKAYYVALPPNMDYWGQGTQVTVSS | high polyreactivity |
| QVQLVESGGGLVQAGGSLRLSCAASGSTFRSYAMGWYRQAPGKERELVAAITSGANTNYADSVKGRFTISRDNAKNTVDLQMNSLKPEDTAVYYCAKASYIIFRIEYRSGYDYWGQGTQVTVSS | low polyreactivity |
| QVQLVESGGGLVQAGGSLRLSCAASGRIFWTNAMGWYRQAPGKERELVAGITWRGGSTYYADSVKGRFTISRDNAKNTVYLQMNSLKPEDTAVYYCATRQGWYSGFDYWGQGTQVTVSS | high polyreactivity |
| QVQLVESGGGLVQAGGSLRLSCAASGITFTDYAMGWYRQAPGKERELVAAISSRGGSTYYADSVQGRFTISRDNAKNTVYVQMNSLKPEDTAVHYCNARFVRRGSGYDYWGQGTQVTVSS | high polyreactivity |

Task item: Which polyreactivity (PSR sort gate) reading was recorded for the sequence QVQLVESGGGLVQAGGSLRLSCAASGGTFYPYAMGWYREAPGKEWELVAAISTSGGITYYADSVKGRFTISRDNAKNTVYLQMNSLKPEDTAVYYCAKVLRDYYTYYRWQYREFGYWGQGTQVTVSS ?
Reply: high polyreactivity

Task item: Which polyreactivity (PSR sort gate) reading was recorded for the sequence QVQLVESVGGLVQAGGSLRLSCPTSGRIFTYYAMGWYRQAPGKERELVAAINSRGGSTYYADSVKGRFTISRDNAKNTVYLQMNSLKPEDSAVYYCAAVGLYSRYAYWGQGTQVSVSS ?
Reply: high polyreactivity

Task item: Which polyreactivity (PSR sort gate) reading was recorded for the sequence QVQLGESGGGLVQAVGSLRLSCAASGSTFRGNAMGWYRQAPAKARELVAANTSDGSTSYADSVKGRFTISRDNAKNTVYLQMNSLKPEDTAVYYSNADYHQSIWEAVDFEYDYWGQGTQVTVSS ?
Reply: low polyreactivity

Task item: Which polyreactivity (PSR sort gate) reading was recorded for the sequence QVQRVESGGGLVQAGGSLRLSCAATGFTFSWYVMGWYRQAPGKERELVATITNRGGSTYYSDSVKGRFTISRDNAKNTVYLQMNSLKPEDPAVYYCAARKKGSRVGFDYWGQGTQVTVSS ?
Reply: high polyreactivity

Task item: Which polyreactivity (PSR sort gate) reading was recorded for the sequence QVQLVESGGGLVQAGGSLRLSCAASGNTFRSYVMGWYRQAPGKERELVAVITKSGGSTYYADSVKGRFTISRDNAKNTVYLQMNSLKPEDTAVYYCAADRPAYGVGYWGQGTQVTVSS ?
Reply: high polyreactivity

Task item: Which polyreactivity (PSR sort gate) reading was recorded for the sequence QVQLVESGGGLVQAGGSLRLSCAASGSNYGFYAMGWYRKAPGKERELVAVISSDGSTNYADSVKGRFTISRDNAKNTVYLQMNSLKPEDTAVYYCAADWSITYGDGGYWGQGTQVTVSS ?
Reply: low polyreactivity

Task item: Which polyreactivity (PSR sort gate) reading was recorded for the sequence QVQLVESGGGLVQAGGSLRLSCAASGLTFWYYAMGWYRQAPGKERELVAAISWSGGRTSYADSVKGRFTISRDNAKNTVYLQMNSLKPEDTAVYYCAADKDFRTGEFEYDYWGQGTQLTVSS ?
Reply: high polyreactivity

Task item: Which polyreactivity (PSR sort gate) reading was recorded for the sequence QVQLVESGGGLVQAGGSLRISCAASGSIFYPYAMGWYRQAPGKERELVAGITYRAGSTYYADSVKGRFTISRDNAKNTVYLQMNSLKPEDTAVYYCAASESYAFDWGQGTQVTVSS ?
Reply: high polyreactivity

* * *

# EXPERIMENTAL DETAILS: yeast display, Sf9 membrane polyspecificity reagent, FACS + sequencing; frameworks hold sequencing errors
METRIC: polyreactivity (PSR sort gate)

| SEQUENCE INPUT | MEASURED VALUE |
| --- | --- |
| QVQLVESGGGLVQAGGSLRLSCASSGITFPNYAMGWSRQAPGNERELVAAISSSGGSTYYADSVKGRFTISRDKAKNTGYLQMNSLKPEDTAVYYCATAINVYPRMDYGYWGQGTQVTVSS | low polyreactivity |
| QVQLVESGGGLVQAGGSLRLSCAASGSTFYKNAMGWNRQAPGKERELVASISRSGGSTSYADSVKGRFTISRDNAKNTVYLQMNSLKPEDTAVYYCAATWRQHPGSMGYWGQGTQVTVSS | high polyreactivity |
| QVQLVESGGGLFQAGGSLRLSCAASGSIFQYYTMRWYRQAPGKERELVATINNNGGRTYYADSVKGRFTISRDNAMNSVYFQMYSLKPVDTAVYYCATDIWRYYRGWEDYWGQGTEVTVSS | high polyreactivity |
| QVQLVESGVGLVQAGGSLRLSCAASGFSFAVYGMGSYIQAPGKQRELVAAISTGDSTKYADSVKARFTISRDNAKNTVYLQKNSLKPEDTEVYYCAARIPWSPWLGYWGQGTQVTVST | high polyreactivity |
| QVQLVESGGGLVQAGGSLRLSCAASGRIFWPNTMGWYRQAPGKERELVATITSTGTRTYYADSVKGRFTISRDNAKNTVYLQMNSLNPEDTAVYYCNARGYYRPDRPTRRNRFDYWGQGTQVTVSS | high polyreactivity |

Task item: Which polyreactivity (PSR sort gate) reading was recorded for the sequence QVQLVESGGGLVQAGGSLRLSCAASGFIFWEYAMGWYRQAPGKERELVAVISYRGGSTYYADSVKGRFTISRDNAKNTVYLQMNSLKPEDTAVYYCNADTIPDGEDRYDYWGQGTQVTVSS ?
Reply: low polyreactivity

Task item: Which polyreactivity (PSR sort gate) reading was recorded for the sequence QVQLVESGGGLVQAGGSLRLSCAASGSIFSGYAMGWYRQAPGKERELVAAITWRAASTYYADSVKGRFTISRDNAKNTVYLQMNSLKPEDTAVYYCAKEGWPKPAFYYWGQGTQVTVSS ?
Reply: low polyreactivity

Task item: Which polyreactivity (PSR sort gate) reading was recorded for the sequence QVQLVESGGGLVQAGGSLRLSCAASGSTFSNNAMGWYRQAPGKERELVASTNYADSVKGRFTISRDNAKNTVYLQMNSLKPEDTAVYYCAAGAYPSWGHDYWGQGTQVTVSS ?
Reply: low polyreactivity

Task item: Which polyreactivity (PSR sort gate) reading was recorded for the sequence QVQLQEIGGGLVQAGGSLRLSCAASGYISLAKTIGLSRQAPGKEREFVASIALGSSTYYTDSVKGSFTISRDNAKTTVYLQMNRLKPEDTAVYYCAARVGASYAHDYGGQGTQVTVSS ?
Reply: low polyreactivity

Task item: Which polyreactivity (PSR sort gate) reading was recorded for the sequence QVQLVESGGGLVQAGGSLRLSCAASGSIYWYAMGWYTQAPGKERELVAAITKSGSSTYYADSVKGRFTISRDNANNTVYLQMNSLIPEDTAVYYCAARRAVSGGVRMYYWGQGTQVTVSS ?
Reply: high polyreactivity

Task item: Which polyreactivity (PSR sort gate) reading was recorded for the sequence QVQLVESGGGLVQAGGSLRLSCAASGSIFDYNSMGMYIQAPGKERELVAAISSGGTTYYADSVKGRFTISLDNAKNTVYLHIKSLKPEDTDVYYCAARRAGWWGFYYWGQCTQVTVSS ?
Reply: high polyreactivity

* * *

# EXPERIMENTAL DETAILS: yeast display, Sf9 membrane polyspecificity reagent, FACS + sequencing; frameworks hold sequencing errors
METRIC: polyreactivity (PSR sort gate)

Known results for sequences:
| SEQUENCE INPUT | polyreactivity (PSR sort gate) |
| --- | --- |
| QVQLVESGGGLVQAGGSLRLSCVASGRIIPCNAMGWYRQAPGKERELVAAISYGGGSTYYADSVKGRFTISRDNAKNTVYLQMNSLKPADTAVYYCAAASSGEYGYWGQGTQVTVSS | low polyreactivity |
| QVQLVESGGGLVQAGGSLRLSCAASGRIFAYYAMGWYRQAPGKERELVAAITSSGGSTYYADSVKGRFTISRDNAKNTVYLQMNSLKPEDTAVYFCAKVGARSERFDYRGQGTQVTVSS | high polyreactivity |
| QVQLVESGVGVVQAGGSLRLSCAASGSTYVDNAMGWYRQAPGKERELVAGNSWSGASTYYADSVKGRFTISRDNAKNTFYLQMNSLKAEDTAVYYCATRVRAYYHQSWGYTERVYWGQGTQVTVSS | high polyreactivity |
| QGQLVESGGGLVQAGGSLRLSCAASGFTFARNVMGWSRQAPGTERELVAAITTSGGSTYYADSVKGRFTISRDNAKNTVYLQMNSLKPEDTAVYYCARRVYGYYIPYNYWGQGTQVTVSS | high polyreactivity |
| QVQLVESGGGLVQAGGSLRLSCAASGNIFARYAMGWYRQATGKERDLVSAISRSGGSTYYADSVKGRFTISRDNAKNSVYLQMKCLKPEDTAVYYCNAKSYGVLYWFAYDYWGQGTQVTVSS | high polyreactivity |

Task item: Which polyreactivity (PSR sort gate) reading was recorded for the sequence QVQLQESGGGLVQAGGSLRLSCAASGSNFDTPTMGWYRQAPGKERELVASSAYDDNTYYADSVKGRFTISRYNAKNTVYLQRNSLKPGDTAVYYCAVTDRIYYYFVYWGQGTRVTVSS ?
Reply: high polyreactivity

Task item: Which polyreactivity (PSR sort gate) reading was recorded for the sequence QVQLVESGGGLVQAGGSLRLSCAASGFIFESNAMGWYRQAPGKERELVAAISKRGGSTYYADSVKGRFTISRDNAKNTVYLQMNSLKPEDTAVYYCNKARGYYHPGYQYGLDYWGQGTQVTVSS ?
Reply: high polyreactivity

Task item: Which polyreactivity (PSR sort gate) reading was recorded for the sequence QVQLVESGGGLVQAGGSLRLSCAASGSTFYYYTMGWYRQAPGKERELVAAISSSGGSTYYADSVKGRFTISRDNAKNTVYLQMNSLKPEDTAVYYCNAARKGYRVYTLIDRHKYDYWGQGTQVTVSS ?
Reply: high polyreactivity

Task item: Which polyreactivity (PSR sort gate) reading was recorded for the sequence QVQLVESGGGLVQAGGSLRLSCAASGFTVGVYAMGWYRQAPGKERELVAAISSGGSTNYADSVKGRFTISRDNAKNTVYLQMNSLKPEDTAVYYCAADAVSGGQGTADYDYWGQGTQVTVSS ?
Reply: low polyreactivity

Task item: Which polyreactivity (PSR sort gate) reading was recorded for the sequence QVQLVESGGGLVQAGGSLRLSCAASGRIFDDNAKGCYRQPPGKERELLASLTVSTGSTYYADSVKGRFTISRDTAKNTVYLQMNSLKPEDTAVYYCAAPYITPYGTYVFSSDYWGQGTQVTVSS ?
Reply: low polyreactivity

Task item: Which polyreactivity (PSR sort gate) reading was recorded for the sequence QVQLVESGGGLVQAGGSLRLTCAASGFIFGSYSMGWYRQAPGKERELVAAITSGGSTYYADSVKGRFTISRDNAKNTVYLQMNSLKPEDTAVYYCAKYHWRLSFSRYPYDYWGQGTQVTVSS ?
Reply: high polyreactivity
